Target: T1, CD19 (UniProt P15391 20-556, limits assumed)
T1 sequence (looked up): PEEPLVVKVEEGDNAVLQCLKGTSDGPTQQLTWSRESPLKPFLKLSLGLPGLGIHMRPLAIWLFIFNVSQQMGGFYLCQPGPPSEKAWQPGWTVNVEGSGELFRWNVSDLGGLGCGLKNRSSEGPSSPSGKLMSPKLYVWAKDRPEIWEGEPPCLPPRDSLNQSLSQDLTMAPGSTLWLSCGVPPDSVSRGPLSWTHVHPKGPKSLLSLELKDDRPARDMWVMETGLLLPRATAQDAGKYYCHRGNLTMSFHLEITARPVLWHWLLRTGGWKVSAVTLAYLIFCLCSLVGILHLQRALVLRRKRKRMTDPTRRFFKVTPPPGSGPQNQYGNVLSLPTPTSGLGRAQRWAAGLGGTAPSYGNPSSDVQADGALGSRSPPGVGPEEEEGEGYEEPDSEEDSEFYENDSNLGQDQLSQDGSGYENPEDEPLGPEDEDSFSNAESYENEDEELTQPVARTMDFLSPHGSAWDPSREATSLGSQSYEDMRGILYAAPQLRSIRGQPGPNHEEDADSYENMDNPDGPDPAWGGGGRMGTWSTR
Experiment: cell-based or functional assay
List of EC50 of cytotoxicity (LDH), sCAR-T cells + switch vs CD19+ RS4;11, assay DTR-5-15 (PBMC) values.
Field format: number, assumed pM, no unit text.

Completed entries (count: 2):
# binder, unit-text, observed-measurement
data = [
    ("hFMCL2b/H4b(Q1E)-WT (antibody, V domains shown) VH: EVQLQESGPGLVKPSETLSVTCTVSGVSLPDYGVSWIRQPPGKGLEWLGVIWGSETTYYNPSLKSRLTISKDNSKNQVSLKMSSLTAADTAVYYCAKHYYYGGSYAMDYWGQGTLVTVSS VL: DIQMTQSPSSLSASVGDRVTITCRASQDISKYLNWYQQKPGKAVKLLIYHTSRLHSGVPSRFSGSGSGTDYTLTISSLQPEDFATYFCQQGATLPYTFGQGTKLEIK", "pM", 7.15),
    ("hFMCL2/H2 WT (antibody, V domains shown) VH: QVQLQESGPGLVKPSETLSVTCTVSGVSLPDYGVSWIRQPPGKGLEWLGVIWGSETTYYNPSLKSRLTISKDTSKNQVSLKMSSLTAADTAVYYCARHYYYGGSYAMDYWGQGTLVTVSS VL: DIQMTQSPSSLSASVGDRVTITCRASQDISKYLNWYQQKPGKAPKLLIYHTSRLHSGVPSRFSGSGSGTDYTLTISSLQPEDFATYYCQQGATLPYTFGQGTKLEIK", "pM", 141),
]

Let us examine a further case.
Enquiry: I am curious: what EC50 of cytotoxicity (LDH), sCAR-T cells + switch vs CD19+ RS4;11, assay DTR-5-15 (PBMC) value has been reported for hFMCL2b/H4c(Q1E)-WT (antibody, V domains shown) VH: EVQLQESGPGLVKPSETLSVTCTVSGVSLPDYGVSWIRQPPGKGLEWLGVIWGSETTYYNSALKSRLTISKDNSKNQVSLKMSSLTAADTAVYYCAKHYYYGGSYAMDYWGQGTLVTVSS VL: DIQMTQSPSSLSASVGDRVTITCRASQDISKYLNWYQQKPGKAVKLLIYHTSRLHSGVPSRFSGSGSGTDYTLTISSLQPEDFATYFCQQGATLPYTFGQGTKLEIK ?
Return: 7.1
